This collection of values is drawn from patent US10913757B2.

System: rat liver mitochondria (RLM)
Experiment: Mitochondrial transmembrane electric potential (ΔΨ) of RLM, safranine fluorescence
Assay type: biochemical
Conditions: succinate; 5 μM
Description: In an embodiment, and as an example, AntiOxCINs and MitoQ toxicity effects on the mitochondrial bioenergetics, namely on RLM ΔΨ and mitochondrial respiration parameters, were measured. […] In addition, the mitochondrial oxidative phosphorylation coupling index, known as respiratory control ratio (RCR, state 3/state 4 respiration) and ADP/O index (the coupling between ATP synthesis and oxygen consumption) were also calculated. […]
Recorded metric: ADP-induced depolarization (ΔΨ in - mV)
Answers are plain numbers, in mV.

Examples with answers:
compound="CS(=O)(=O)[O-].O=C(/C=C/c1ccc(O)c(O)c1)NCCCCCCCC[P+](c1ccccc1)(c1ccccc1)c1ccccc1 [AntiOxCIN3]" recorded_metric="ADP-induced depolarization (ΔΨ in - mV)" test_result=174.5
compound="CS(=O)(=O)[O-].O=C(/C=C/c1cc(O)c(O)c(O)c1)NCCCCCCCCCC[P+](c1ccccc1)(c1ccccc1)c1ccccc1 [AntiOxCIN7]" recorded_metric="ADP-induced depolarization (ΔΨ in - mV)" test_result=176.2

Please turn your attention to the following entry.
Look up ADP-induced depolarization (ΔΨ in - mV) for this compound: CS(=O)(=O)[O-].O=C(/C=C/c1cc(O)c(O)c(O)c1)NCCCCCC[P+](c1ccccc1)(c1ccccc1)c1ccccc1 [AntiOxCIN4]
176.2
